- measured target: HLA-A*24 (human)
- measurement protocol: UV peptide exchange ELISA
measurement type: peptide exchange yield

So for SYMVLAPVF , the logged peptide exchange yield turned out to be > 75%

So for VYPLLSRLYW , the logged peptide exchange yield turned out to be > 75%

So for NYAENILTL , the logged peptide exchange yield turned out to be 50 to 75%

So for AYTLLGHEFV , the logged peptide exchange yield turned out to be 10 to 20%

So for YPSIIQEF , the logged peptide exchange yield turned out to be > 75%

So for HYTYILEVF , the logged peptide exchange yield turned out to be > 75%

So for QWPWQASLQF , the logged peptide exchange yield turned out to be > 75%

So for VYNDHSIYVW , the logged peptide exchange yield turned out to be > 75%

Values from patent US20220153796A1
